System: IGROV-1
Test: NCI tumour cell line growth inhibition, 48 h
Active and inactive are the calls of the source. Rule as the data show it: active = GI50 up to about 1.1 µM and inactive = higher.

| compound | system.under.test | GI50 |
| --- | --- | --- |
| O=C(Cn1c2ccc(Br)cc2c2nc3ccccc3nc21)NC1CCCCC1 | IGROV-1 | > 100 µM (inactive) |
| C=C(C)C1CC2=C(O1)C(=O)c1cccc(O)c1C2=O (stereo not drawn) | IGROV-1 | 0.256 µM (active) |
| O=C1Nc2cccc(Cl)c2/C1=C\c1c(Cl)nc2n1CCS2 | IGROV-1 | > 100 µM (inactive) |
| COc1cc2c3c(n(C)c(=O)c2cc1OC)-c1cc2c(cc1/C3=C\CCCCCBr)OCO2 | IGROV-1 | 0.0546 µM (active) |
| CC(/C=C/C(=O)c1sc(C(N)=S)nc1C)=C\c1ccccc1 | IGROV-1 | > 100 µM (inactive) |
| CCN1CCC(O)(/C=C/c2cccc(C)c2)C(C(=O)/C=C/c2cccc(C)c2)C1 (stereo not drawn) | IGROV-1 | 1.94 µM (inactive) |
| CCN(CC)CCCC(C)NC(=O)c1cc(-c2nccn2C)nc2ccc(C)cc12 (stereo not drawn) | IGROV-1 | > 100 µM (inactive) |
| CC(=O)Nc1ccc(C2SCc3nc4ccccc4n32)cc1 (stereo not drawn) | IGROV-1 | > 91 µM (inactive) |

---

Test system: SN12C
Test: NCI tumour cell line growth inhibition, 48 h
Calls of active or inactive are those of the source. No stated cut-off is given here; in the data, active = GI50 up to about 1.1 µM and inactive = higher.

| molecule | GI50 |
| --- | --- |
| C=C(C)CCN(C(=O)OC(C)(C)C)c1cc(C(C)C)co1 | > 100 µM (inactive) |
| CCCC(=O)Nc1cc(C(=O)N2C[C@@H]3C[C@]34C2=CC(=O)c2[nH]cc(C)c24)n(COC)c1 | 10.6 µM (inactive) |
| CC(=O)OCC1OC(OCCCCCCO)C(OC(C)=O)C(OC(C)=O)C1OC(C)=O (configuration not stated) | > 100 µM (inactive) |
| COc1ccc(S(=O)(=O)Nc2ccc(-c3csc(N4C(=O)/C(=C/C=C\c5ccccc5)N=C4c4ccccc4)n3)cc2)cc1Cl | 33.2 µM (inactive) |
| c1ccc(N/N=N/c2ccc(-c3nc4ccccc4[nH]3)cc2)nc1 | 15.3 µM (inactive) |
| CC[n+]1c(/C=C/c2ccc(N(CCCl)CCCl)cc2)ccc2cc(Br)ccc21 | 2.48 µM (inactive) |
| O=C1C2c3[nH]c4ccccc4c3C3CCC(c4ccccc4)CC3C2C(=O)N1c1ccccc1 (configuration not stated) | > 100 µM (inactive) |

---

Tested on: SNB-75
Assay: NCI tumour cell line growth inhibition, 48 h
Active and inactive are the calls of the source. Rule as the data show it: active = GI50 up to about 1.1 µM and inactive = higher.
Possible outcomes: class 1 (active), class 0 (inactive)

| compound | category.label |
| --- | --- |
| CC(C)C[C@H](NC(=O)CCc1cccc2ccccc12)B(O)O | class 0 |
| COc1c(OC)c(OC)c(C(=O)/C=C/c2ccccc2)c(OC)c1OC | class 0 |
| O=Cc1cc2c(o1)C(=O)c1ccccc1C2=O | class 1 |
| COC(=O)C12CC3CC(CC(C(=O)O)(C3)C1)C2 | class 0 |
| CN(C)c1ccc(C(=NNC(=O)c2cc3ccccc3[nH]2)c2ccc(N(C)C)cc2)cc1 | class 1 |
| Cn1cc(NC(=O)c2cc(NC(=O)Nc3cc(C(=O)Nc4cc(C(=O)NCCC(=N)N)n(C)c4)n(C)c3)cn2C)cc1C(=O)NCCC(=N)N | class 0 |
| CC(=O)O[C@]12CCC[C@H]1C1(O)C(O)CCC[C@H]12 (stereo partly drawn) | class 0 |
| O=c1[nH]n(Cc2ccccc2Cl)c2ccc([N+](=O)[O-])cc12 | class 0 |
| CNCCCNC1(c2cc3ccccc3s2)CCCCC1 | class 0 |
| O=c1cc(CNC2CC3CCC2C3)[nH]c(=O)[nH]1 (stereo not drawn) | class 0 |
| O=C1CCC(=O)C1=NNc1cc(Cl)cc(Cl)c1 | class 0 |
| CC(=O)O[C@]12CCCCCC1C1(O)C(O)CCCC[C@H]12 (stereo partly drawn) | class 0 |
| CCOC(=O)C(Cc1ccccc1)NC(=O)c1ccc(/N=N/N(C)C)cc1 (stereo not drawn) | class 0 |
